Recorded z-score values for a group of compounds are listed next.
Test: HepG2 cell viability effects, profiling panel, calcein-AM fluorescence, 48 h, basal (AID 1164); further: test concentration not given here
Settings: higher = more signal
No unit in the answer, please; the number alone is enough.

Answered examples (3):
CCCCCCc1nc(Cc2cc(OC)c(OC)c(OC)c2)c(C)c2c1[Si](C(C)C)(C(C)C)OC2
-0.348
C=CCOC(=O)[C@@H]1[C@H]2C(=O)O[C@H](c3ccccc3)[C@H](c3ccccc3)N2[C@H](c2ccc(OCCOC(=O)[C@@H]3C[C@@H]4C(=O)N[C@@H](CC(C)C)C(=O)N4[C@@H]3c3ccc(O)cc3)cc2)[C@@]12C(=O)Nc1ccc(I)cc12
-0.0024
Cc1ccc(S(=O)(=O)N2[C@@H](c3ccccc3)C(C(=O)O)=C[C@H]2C(C)(C)C)cc1
-0.558

For reference, reported z-score for C=CCNC(=O)[C@@H]1[C@H]2C(=O)O[C@H](c3ccccc3)[C@H](c3ccccc3)N2[C@H](c2ccc(OCCO)cc2)[C@@]12C(=O)Nc1ccc(C#CCNC(N)=O)cc12 stands at -0.397

For reference, reported z-score for CC(=O)NCCCC[C@@H]1NC(=O)[C@H]2C[C@@H](C(=O)NCCCCCN)[C@@H](c3ccc(O)cc3)N2C1=O stands at -0.926

For reference, reported z-score for [N-]=[N+]=NCc1ccccc1[C@H]1OC(c2ccc(OCCCO)cc2)=N[C@@]1(Cc1ccccc1N=[N+]=[N-])C(=O)N1CCOCC1 stands at -0.659

For reference, reported z-score for O=C1O[C@@H](c2ccccc2)[C@@H](c2ccccc2)N2[C@@H](c3ccc(OCCO)cc3)[C@]3(C(=O)Nc4ccc(C#CC5=CCCCC5)cc43)[C@@H](C(=O)Nc3nc4ccccc4s3)[C@H]12 stands at 0.803

For reference, reported z-score for CC(C)(C)OC(=O)CC[C@]1(C(N)=O)N=C(c2ccc(OCCCO)cc2)O[C@H]1c1ccccc1N=[N+]=[N-] stands at 0.934
